# STUDY_SYSTEM: human EGFR exon 20 insertion NPG (H773_V774insNPG) (Homo sapiens, UniProt P00533, INS772GNP)
# Sequence (P00533 with tags, fused parts or gaps INS772GNP): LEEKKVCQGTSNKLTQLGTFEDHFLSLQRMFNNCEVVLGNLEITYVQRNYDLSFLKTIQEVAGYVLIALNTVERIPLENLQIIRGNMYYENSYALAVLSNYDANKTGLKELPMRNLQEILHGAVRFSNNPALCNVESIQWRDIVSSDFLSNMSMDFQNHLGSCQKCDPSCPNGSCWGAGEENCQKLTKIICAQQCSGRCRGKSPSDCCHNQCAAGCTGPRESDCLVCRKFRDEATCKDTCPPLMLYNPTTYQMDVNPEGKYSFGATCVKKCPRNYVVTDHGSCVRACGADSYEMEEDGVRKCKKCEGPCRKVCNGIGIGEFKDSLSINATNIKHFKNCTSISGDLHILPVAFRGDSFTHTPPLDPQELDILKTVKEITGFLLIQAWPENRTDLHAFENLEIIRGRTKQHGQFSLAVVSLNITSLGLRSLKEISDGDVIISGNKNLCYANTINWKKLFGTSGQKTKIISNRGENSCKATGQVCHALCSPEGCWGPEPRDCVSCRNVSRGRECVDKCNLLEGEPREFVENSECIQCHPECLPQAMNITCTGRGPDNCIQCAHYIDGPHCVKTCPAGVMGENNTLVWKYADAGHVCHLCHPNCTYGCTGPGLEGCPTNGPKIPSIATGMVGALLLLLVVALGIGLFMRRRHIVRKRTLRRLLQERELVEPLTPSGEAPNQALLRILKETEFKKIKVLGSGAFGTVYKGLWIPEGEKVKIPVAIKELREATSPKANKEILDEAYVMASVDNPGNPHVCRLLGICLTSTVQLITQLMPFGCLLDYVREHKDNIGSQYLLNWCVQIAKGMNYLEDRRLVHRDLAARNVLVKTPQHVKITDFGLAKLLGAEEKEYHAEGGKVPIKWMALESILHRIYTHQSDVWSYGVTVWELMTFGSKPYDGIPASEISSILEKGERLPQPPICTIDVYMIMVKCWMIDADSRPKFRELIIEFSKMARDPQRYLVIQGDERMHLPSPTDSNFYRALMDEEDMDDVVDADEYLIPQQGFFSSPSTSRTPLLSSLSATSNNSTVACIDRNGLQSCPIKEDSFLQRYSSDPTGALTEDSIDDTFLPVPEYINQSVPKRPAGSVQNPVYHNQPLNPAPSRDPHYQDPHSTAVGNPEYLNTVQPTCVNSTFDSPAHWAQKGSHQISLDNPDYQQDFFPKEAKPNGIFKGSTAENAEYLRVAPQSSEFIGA
# ASSAY_INFO: Ba/F3-EGFR-Exon20-NPG cell anti-proliferative assay (CellTiter 96 MTS, 72 h)
# TEST_PARAMETERS: Ba/F3-EGFR-Exon20-NPG cells
Measured IC50, listed per entry for reference.

MOLECULE: C=CC(=O)Nc1cc(Nc2ncc(OCC(C)O)c(-c3cn4c5c(cccc35)CCC4)n2)c(OC)cc1N(C)CCN(C)C (stereo not shown)
IC50: < 100 nM
//
MOLECULE: C=CC(=O)Nc1cc(Nc2ncc(Cl)c(-c3cn4c5c(cccc35)CCC4)n2)c(OC)cc1OCCN1CCOCC1
IC50: 100 to 500 nM
//
MOLECULE: C=CC(=O)Nc1cc(Nc2ncc(CCC(C)(C)O)c(-c3cn4c5c(cccc35)CCC4)n2)c(OC)cc1N(C)CCN(C)C
IC50: < 100 nM
//
MOLECULE: C=CC(=O)Nc1cc(Nc2ncc(Cl)c(-c3cn4c5c(cccc35)CCC4)n2)c(CC)cc1N(C)CCN(C)C
IC50: < 100 nM
